Measured pKd, listed per entry for reference.
experiment: Binding affinity to human neutrophil MPO delta (1-95) measured for 5 mins by SPR assay
pKd: −log10 of the molar value.
ATTRIBUTE MEASURED: pKd

[[record]]
molecular_string = "Nc1cc(Cc2ccccc2)c2nn[nH]c2n1"
attribute_measured = "pKd"
result_number = 7.49

[[record]]
molecular_string = "Nc1nc(OCc2ccccc2)c2[nH]nnc2n1"
attribute_measured = "pKd"
result_number = 6.26


* * *

experiment: Permeability of compound at pH 7.4 by PAMPA assay; assay type: ADME; conditions: read-out: permeability
Just a reminder that ties go to n: only Papp strictly below 20 ×10⁻⁶ cm/s counts as y.

[[record]]
compound = "Nc1cc([C@H](CCNCc2ccccc2C(F)(F)F)c2ccccc2)c2nn[nH]c2n1"
class = "n"

[[record]]
compound = "Nc1cc([C@H](Cc2ccccc2)c2ccccc2)c2nn[nH]c2n1"
class = "n"

[[record]]
compound = "Nc1cc([C@H](CCOCc2ccccc2)c2ccccc2)c2nn[nH]c2n1"
class = "n"

[[record]]
compound = "Nc1cc(C(CCNC23CCC(c4ccccc4)(CC2)OC3)c2ccccc2)c2nn[nH]c2n1 (stereo not given)"
class = "y"

[[record]]
compound = "Nc1cc([C@H](CCN[C@@H]2CC[C@@H](c3ccccc3)C2)c2ccccc2)c2nn[nH]c2n1"
class = "y"

[[record]]
compound = "Nc1cc([C@H](CCCc2ccccc2)c2ccccc2)c2nn[nH]c2n1"
class = "n"

[[record]]
compound = "Nc1cc([C@H](CCNCc2ccccc2)c2ccccc2)c2nn[nH]c2n1"
class = "y"

[[record]]
compound = "Nc1cc([C@H](CCN(CCF)C23CCC(c4ccccc4)(CC2)CC3)c2ccccc2)c2nn[nH]c2n1"
class = "n"

[[record]]
compound = "Nc1nc(OCc2ccccc2)c2[nH]nnc2n1"
class = "y"

[[record]]
compound = "CN(CC[C@H](c1ccccc1)c1cc(N)nc2[nH]nnc12)C12CCC(c3ccccc3)(CC1)CC2"
class = "y"


* * *

Target: Myeloperoxidase (Homo sapiens, UniProt P05164)
Sequence (P05164 whole entry): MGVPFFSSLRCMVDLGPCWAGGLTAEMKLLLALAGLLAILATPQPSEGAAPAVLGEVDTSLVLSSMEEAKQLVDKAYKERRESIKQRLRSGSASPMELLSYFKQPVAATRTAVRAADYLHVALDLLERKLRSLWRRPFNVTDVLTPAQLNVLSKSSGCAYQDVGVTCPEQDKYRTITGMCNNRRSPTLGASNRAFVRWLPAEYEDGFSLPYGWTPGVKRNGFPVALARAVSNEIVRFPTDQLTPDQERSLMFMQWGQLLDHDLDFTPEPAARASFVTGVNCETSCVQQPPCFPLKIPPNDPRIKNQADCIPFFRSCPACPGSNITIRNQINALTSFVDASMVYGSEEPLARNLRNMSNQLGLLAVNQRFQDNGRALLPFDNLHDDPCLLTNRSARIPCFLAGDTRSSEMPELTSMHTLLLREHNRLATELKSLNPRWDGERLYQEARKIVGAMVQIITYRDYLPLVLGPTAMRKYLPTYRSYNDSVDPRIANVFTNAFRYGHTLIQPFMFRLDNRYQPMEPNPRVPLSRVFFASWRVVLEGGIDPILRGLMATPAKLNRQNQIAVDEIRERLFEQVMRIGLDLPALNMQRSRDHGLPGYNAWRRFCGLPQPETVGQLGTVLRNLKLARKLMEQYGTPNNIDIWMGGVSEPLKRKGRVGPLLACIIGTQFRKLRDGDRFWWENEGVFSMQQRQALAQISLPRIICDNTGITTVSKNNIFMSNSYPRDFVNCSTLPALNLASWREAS
Experiment: Inhibition of recombinant human MPO incubated for 10 mins by amplex red dye based assay
pIC50: −log10 of the molar value.
ATTRIBUTE MEASURED: pIC50

[[record]]
molecular_string = "Nc1cc(Cc2cccc(C(F)(F)F)c2)c2nn[nH]c2n1"
tested_system = "Myeloperoxidase (Homo sapiens, UniProt P05164)"
attribute_measured = "pIC50"
result = 5.85

[[record]]
molecular_string = "Nc1nc(NCc2ccccc2)c2nn[nH]c2n1"
tested_system = "Myeloperoxidase (Homo sapiens, UniProt P05164)"
attribute_measured = "pIC50"
result = "< 4.40"

[[record]]
molecular_string = "CN(Cc1ccccc1)c1nc(N)nc2[nH]nnc12"
tested_system = "Myeloperoxidase (Homo sapiens, UniProt P05164)"
attribute_measured = "pIC50"
result = "< 4.40"


Numbers sourced from ChEMBL document CHEMBL4699540.
